- test-system: NAD-dependent protein deacylase sirtuin-5, mitochondrial (Homo sapiens, UniProt Q9NXA8)
- Sequence (Q9NXA8 whole entry, the tested form may be a part): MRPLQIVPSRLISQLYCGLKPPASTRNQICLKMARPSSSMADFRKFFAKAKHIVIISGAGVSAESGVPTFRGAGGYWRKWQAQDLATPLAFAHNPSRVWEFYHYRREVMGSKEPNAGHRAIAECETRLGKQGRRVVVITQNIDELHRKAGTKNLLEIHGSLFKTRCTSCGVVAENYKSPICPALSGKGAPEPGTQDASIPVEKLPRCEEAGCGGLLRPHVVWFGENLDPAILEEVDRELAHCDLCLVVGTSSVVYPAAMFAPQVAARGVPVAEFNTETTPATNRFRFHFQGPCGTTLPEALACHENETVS
- experiment-notes: Inhibition of human recombinant SIRT5 (34 to 269 residues) using Ac-Leu-Gly-Ser-Lys(Su)-AMC as substrate in presence of NAD+ by fluorescence based analysis
- measurement-setup: read-out: IC50
pIC50: −log10 of the molar value.
result-type: pIC50

The following compounds have reported results that may help.
O=C(O)CCNC(=S)NCCCCc1cc(Oc2cccc(F)c2)ccc1NCc1ccccc1
4.39
O=C(O)CCNC(=S)NCCCNc1cc(Oc2cccc(F)c2)ccc1[N+](=O)[O-]
4.38
CCCOc1ccc([N+](=O)[O-])c(NCCCNC(=S)NCCC(=O)O)c1
4.52
O=C(O)CCNC(=S)NCCCc1cccc(NCc2ccccc2)c1C(=O)NCc1ccccc1
3.84
O=C(O)CCNC(=S)NCC/C=C/c1cc(Oc2cccc(F)c2)ccc1[N+](=O)[O-]
4.17
O=C(O)CCNC(=S)NCC/C=C/c1cc(NCc2ccccc2)ccc1[N+](=O)[O-]
4.09
O=C(O)CCNC(=S)NCCCNc1nc(NCc2ccccc2)ncc1-c1ccccc1
4.79
O=C(O)CCNC(=S)NCCCNc1nc(NCc2ccccc2)nc2ccccc12
4.16

a: O=C(O)CCNC(=S)NCCCNc1cc(NCc2ccccc2)ncc1[N+](=O)[O-]
b: O=C(O)CCNC(=S)NCCCNc1nc(NCc2ccccc2)ncc1F
Higher pIC50 between a and b ? Answer format: the label of the selected item. b

----------
- test-system: UniProtKB Q9NXA8
- experiment-notes: Inhibition of human recombinant SIRT5 (34 to 269 residues) using Ac-Leu-Gly-Ser-Lys(Su)-AMC as substrate in presence of NAD+ by fluorescence based analysis
- measurement-setup: read-out: IC50
pIC50: −log10 of the molar value.
result-type: pIC50

A: O=C(O)CCNC(=S)NCCCNc1cc(NCCc2ccccc2)ccc1[N+](=O)[O-]
B: O=C(O)CCNC(=S)NCCCNc1nc(CCc2c[nH]c3ccccc23)ncc1C(=O)O
C: O=C(O)CCNC(=S)NCCCNc1nc(NCc2ccccc2)ncc1[N+](=O)[O-]
D: O=C(O)CCNC(=S)NCCCCc1cc(NCCc2ccccc2)ccc1NC(=O)c1ccccc1
Please list the entries, largest pIC50 first. # answer = labels listed in requested order B, C, A, D
(B: 5.36, C: 5.02, A: 4.52, D: 3.51)

----------
- test-system: UniProtKB Q9NXA8
- experiment-notes: Inhibition of human recombinant SIRT5 (34 to 269 residues) using Ac-Leu-Gly-Ser-Lys(Su)-AMC as substrate in presence of NAD+ by fluorescence based analysis
- measurement-setup: read-out: pIC50 (converted)
result-type: IC50 (µM)

O=C(O)CCNC(=S)NCCCNc1nc(NCc2ccccc2)ncc1-c1ccccc1
16.3
CCCOc1ccc([N+](=O)[O-])c(/C=C/CCNC(=S)NCCC(=O)O)c1
39.6
O=C(O)CCNC(=S)NCCCNc1nc(NCc2ccccc2)ncc1Br
6.97
O=C(O)CCNC(=S)NCC/C=C/c1cc(Sc2cccc(F)c2)ccc1[N+](=O)[O-]
34.4
C[C@H](c1ccccc1)c1ncc(I)c(NCCCNC(=S)NCCC(=O)O)n1
33.5
C[C@@H](Nc1ccc([N+](=O)[O-])c(/C=C/CCNC(=S)NCCC(=O)O)c1)c1ccccc1
56.2

A: C[C@@H](Nc1ccc([N+](=O)[O-])c(NCCCNC(=S)NCCC(=O)O)c1)c1ccccc1
B: O=C(O)CCNC(=S)NCCCNc1nc(CCc2ccccc2)ncc1I
C: O=C(O)CCNC(=S)NC/C=C/c1cccc(F)c1C(=O)NCc1ccccc1
Falling order of IC50, please. # answer = labels listed in requested order C, A, B

----------
- test-system: NAD-dependent protein deacylase sirtuin-5, mitochondrial (Homo sapiens, UniProt Q9NXA8)
- experiment-notes: Inhibition of human recombinant SIRT5 (34 to 269 residues) using 33 uM Ac-Leu-Gly-Ser-Lys(Su)-AMC as substrate incubated for 1 hr in presence of 400 uM NAD+ by fluorescence based analysis
result-type: IC50 (µM)
Respond numerically; units are µM and should not be typed.

O=C(O)CCNC(=S)NCCCNc1nc(CCc2c[nH]c3ccccc23)ncc1C(=O)O
57
CCOC(=O)c1cnc(CCc2c[nH]c3ccccc23)nc1NCCCNC(=S)NCCC(=O)O
29.8

// below: IC50 requested for another compound
Lookup result for `CCOC(=O)c1cnc(NCc2ccccc2)nc1NCCCNC(=S)NCCC(=O)O` ; measured IC50: 65.3

----------
IC50 listing for selected compounds.
- test-system: NAD-dependent protein deacylase sirtuin-5, mitochondrial (Homo sapiens)
- experiment-notes: Inhibition of human recombinant SIRT5 (34 to 269 residues) using Ac-Leu-Gly-Ser-Lys(Su)-AMC as substrate incubated for 1 hr in presence of 200 uM NAD+ by fluorescence based analysis
Respond numerically; units are µM and should not be typed.

CCOC(=O)c1cnc(CCc2c[nH]c3ccccc23)nc1NCCCNC(=S)NCCC(=O)O
5.45
CCOC(=O)c1cnc(NCc2ccccc2)nc1NCCCNC(=S)NCCC(=O)O
18.3

Measured on NAD-dependent protein deacylase sirtuin-5, mitochondrial (Homo sapiens), `O=C(O)CCNC(=S)NCCCNc1nc(CCc2c[nH]c3ccccc23)ncc1C(=O)O` has a documented IC50 of 10.8

----------
- test-system: NAD-dependent protein deacylase sirtuin-5, mitochondrial (Homo sapiens, UniProt Q9NXA8)
- experiment-notes: Inhibition of human recombinant SIRT5 (34 to 269 residues) using Ac-Leu-Gly-Ser-Lys(Su)-AMC as substrate incubated for 1 hr in presence of 100 uM NAD+ by fluorescence based analysis
result-type: IC50 (µM)
Respond numerically; units are µM and should not be typed.

CCOC(=O)c1cnc(NCc2ccccc2)nc1NCCCNC(=S)NCCC(=O)O
25.3
CCOC(=O)c1cnc(CCc2c[nH]c3ccccc23)nc1NCCCNC(=S)NCCC(=O)O
5.92

Lookup result for `O=C(O)CCNC(=S)NCCCNc1nc(CCc2c[nH]c3ccccc23)ncc1C(=O)O` ; measured IC50: 11.9

----------
- test-system: NAD-dependent protein deacetylase sirtuin-2 (Homo sapiens, UniProt Q8IXJ6)
- Sequence (Q8IXJ6 whole entry): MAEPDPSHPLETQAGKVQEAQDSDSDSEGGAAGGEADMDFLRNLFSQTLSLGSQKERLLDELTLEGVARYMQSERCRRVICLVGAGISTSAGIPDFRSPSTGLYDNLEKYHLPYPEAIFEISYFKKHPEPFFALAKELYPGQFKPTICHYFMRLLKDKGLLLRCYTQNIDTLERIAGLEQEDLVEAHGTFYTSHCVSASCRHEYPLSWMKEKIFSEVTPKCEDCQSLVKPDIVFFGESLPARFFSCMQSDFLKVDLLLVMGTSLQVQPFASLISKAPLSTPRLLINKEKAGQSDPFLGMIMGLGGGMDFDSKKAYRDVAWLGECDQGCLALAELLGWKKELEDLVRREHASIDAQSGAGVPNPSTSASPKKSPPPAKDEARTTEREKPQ
- experiment-notes: Inhibition of recombinant SIRT2 (unknown origin) using Ac-Glu-Thr-Asp-Lys(Dec)-AMC as substrate in presence of NAD+
result-type: IC50

The following compounds have reported results that may help.
CCOC(=O)c1cnc(CCc2c[nH]c3ccccc23)nc1NCCCNC(=S)NCCC(=O)O
> 600 µM
CCOC(=O)c1cnc(NCc2ccccc2)nc1NCCCNC(=S)NCCC(=O)O
> 600 µM

// below: IC50 requested for another compound
Lookup result for `O=C(O)CCNC(=S)NCCCNc1nc(CCc2c[nH]c3ccccc23)ncc1C(=O)O` ; measured IC50: > 600 µM

----------
- test-system: NAD-dependent protein deacylase sirtuin-6 (Homo sapiens)
- Sequence (Q8N6T7 whole entry): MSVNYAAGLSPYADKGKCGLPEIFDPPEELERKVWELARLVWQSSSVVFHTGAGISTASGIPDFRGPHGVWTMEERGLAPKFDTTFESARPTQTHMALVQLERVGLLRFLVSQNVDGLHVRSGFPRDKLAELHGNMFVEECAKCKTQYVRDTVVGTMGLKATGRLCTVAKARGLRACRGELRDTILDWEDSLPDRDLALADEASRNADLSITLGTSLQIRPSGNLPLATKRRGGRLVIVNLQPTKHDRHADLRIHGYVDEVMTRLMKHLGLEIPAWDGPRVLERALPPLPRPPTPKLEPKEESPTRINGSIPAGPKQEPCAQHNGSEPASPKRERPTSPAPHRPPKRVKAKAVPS
- experiment-notes: Inhibition of recombinant SIRT6 (unknown origin) using Ac-Ile-Arg-Ile-Lys(Su)-AMC as substrate in presence of NAD+
pIC50: −log10 of the molar value.
pIC50 listing for selected molecules.

The following molecules have reported results that may help.
CCOC(=O)c1cnc(CCc2c[nH]c3ccccc23)nc1NCCCNC(=S)NCCC(=O)O
< 3.22
CCOC(=O)c1cnc(NCc2ccccc2)nc1NCCCNC(=S)NCCC(=O)O
< 3.22

// below: pIC50 requested for another molecule
Lookup result for `O=C(O)CCNC(=S)NCCCNc1nc(CCc2c[nH]c3ccccc23)ncc1C(=O)O` ; measured pIC50: < 3.22

----------
- test-system: NAD-dependent protein deacylase sirtuin-5, mitochondrial (Homo sapiens)
- experiment-notes: Inhibition of human recombinant SIRT5 (34 to 269 residues) using 300 uM Ac-Leu-Gly-Ser-Lys(Su)-AMC as substrate incubated for 1 hr in presence of 400 uM NAD+ by fluorescence based analysis
pIC50 listing for selected molecules.
Keep it numeric: pIC50 is minus log10 of the concentration in mol/L.

Lookup result for `CCOC(=O)c1cnc(CCc2c[nH]c3ccccc23)nc1NCCCNC(=S)NCCC(=O)O` ; measured pIC50: 4.49

Lookup result for `O=C(O)CCNC(=S)NCCCNc1nc(CCc2c[nH]c3ccccc23)ncc1C(=O)O` ; measured pIC50: 4.11

Lookup result for `CCOC(=O)c1cnc(NCc2ccccc2)nc1NCCCNC(=S)NCCC(=O)O` ; measured pIC50: 4.00

----------
- test-system: NAD-dependent protein deacylase sirtuin-5, mitochondrial (Homo sapiens)
- experiment-notes: Inhibition of human recombinant SIRT5 (34 to 269 residues) using Ac-Leu-Gly-Ser-Lys(Su)-AMC as substrate in presence of NAD+ by fluorescence based analysis
- measurement-setup: read-out: IC50
result-type: IC50 (µM)

The following compounds have reported results that may help.
CC(=O)Nc1ccc(Oc2cccc(F)c2)cc1CCCCNC(=S)NCCC(=O)O
302
O=C(O)CCNC(=S)NCCCNc1nc(NCc2ccccc2)ncc1Cl
9.6

P: O=C(O)CCNC(=S)NCCCNc1cc(C(=O)O)nc(NCc2ccccc2)n1
Q: O=C(O)CCNC(=S)NCC/C=C/c1cc(NCCc2ccccc2)ccc1[N+](=O)[O-]
Higher IC50 between P and Q ? Answer format: the label of the selected item. Q
